Tested on: K-562 leukemia
Assay: NCI tumour cell line growth inhibition, 48 h
TGI for assorted molecules

# example entries with known answers
CCOC(=O)c1ccc(-c2ccc(Cl)cc2)[nH]1: > 10 µM
N/C(=N\S(=O)(=O)c1ccc(-c2ncccc2C(F)(F)F)s1)Nc1ccc(Cl)cc1: 63.8 µM

For this molecule ( COc1ccc(-c2ccc(NNC(=O)c3ccc(F)cc3)nn2)cc1OC ), measured TGI is > 100 µM

Per the record, OC(C/C=N/N=C/CC(O)(C(F)(F)Cl)C(F)(F)Cl)(C(F)(F)Cl)C(F)(F)Cl has TGI of > 10 µM

Value of measured TGI for the entry CCC(=O)OCN(C)c1nc(N(C)COC(=O)CC)nc(N(C)COC(=O)CC)n1 : > 100 µM

###

Measured TGI, listed per entry for reference.
Tested on: SNB-75 CNS
Experiment: NCI tumour cell line growth inhibition, 48 h
Please give a number only; it is taken to be in µM.

A selection of reference data follows.
O=C(N[C@@H](Cc1coc2ccccc12)B(O)O)[C@@H]1C[C@H]2CC[C@@H]1O2: 38.2
Clc1nc(Cl)c2ncn(Cc3ccccc3Cn3cnc4c(Cl)nc(Cl)nc43)c2n1: 16.4
COc1cc2c(cc1OC)C1Cc3cc(OC)c(OC)cc3N1CC2 (centres undefined): 56.2

Summary for this compound, CCCCC1C=Cn2c(=O)oc3c(OC(C)C)c(C)c(O)c1c32 (centres undefined) : TGI is 4.83

###

# reported GI50; entries follow
Tested on: RXF 393 renal
Test: NCI tumour cell line growth inhibition, 48 h

Below, 9 compounds whose answers are already recorded.
Oc1ccc(Oc2cnc3ccccc3n2)cc1: 34300 nM
Oc1ccc(N=Nc2nccs2)c(O)c1: 5650 nM
Cn1cc(-c2csc(-c3cn(C)c4ccc(F)cc34)n2)c2cnccc21: 1610 nM
NC(=O)CNc1ccc([As]=[As]c2ccc(NCC(N)=O)cc2)cc1 (stereo not given): 3040 nM
COc1cc(C(=O)O[C@H](C(N)=O)[C@]2(C)CO2)c2cccc(C)c2c1: 148 nM
O=C1c2ccccc2C(=O)c2c(NCCN=Cc3ccccc3O)cccc21: 2180 nM
COc1ccc(-c2cc(Nc3ccnc(N4CCOCC4)n3)on2)cc1: 160 nM
NCCCn1c2c(c3ccccc3c1=O)C(=O)c1ccccc1-2: 1220 nM
Nc1c(C(=O)Nc2ccccc2Cl)sc2nc3c(cc12)C(=O)CCC3: 2370 nM

Alright, here's another compound for you.
Documented GI50 of O=C(N/N=C/c1ccc(O)cc1O)c1cccnc1 : 3740 nM

###

System: NCI-H226 lung
Test: NCI tumour cell line growth inhibition, 48 h; in the data active = GI50 below about 0.43 µM; inactive = the rest
// one of true for active, false for inactive, no free text

# example entries with known answers
CN1C(NNC(=O)c2cccnc2)=NS(=O)(=O)c2cc(Cl)ccc21: false
CN(C)CCNc1nc2ccccc2c2c(=O)c3cc(F)ccc3sc12: false
COc1cc2c3c(n(CCCN(CCO)CCO)c(=O)c2cc1OC)-c1cc2c(cc1C3=O)OCO2: true

Status in this test for Clc1nc(Cl)c2ncn(Cc3ccccc3Cn3cnc4c(Cl)nc(Cl)nc43)c2n1 ?
false

Identify the outcome logged in this assay for the compound shown: O=C(N[C@@H](Cc1coc2ccccc12)B(O)O)[C@@H]1C[C@H]2CC[C@@H]1O2
false

Test call for this compound, please: Cn1cc(S(=O)(=O)N2CCC3=Cc4c(cnn4-c4ccc(F)cc4)C[C@]3(C(=O)c3cc(C(F)(F)F)ccn3)C2)cn1
false

Name the outcome recorded for Cn1cc(-c2csc(-c3cn(C)c4ccc(F)cc34)n2)c2cnccc21 in the assay.
false

Which result was noted for this compound in the test: C=C1C(O)C2C(=C(C)C13CC3)C(=O)C(C)(C)C2OC (stereo not given)
false

What classification did Cc1cc(NCCCCNc2ccnc3cc(Cl)ccc23)nc(Nc2ccc(C(=O)N3CCCCC3)cc2)n1 end up with in this test?
false

What did this assay record as the result for Oc1ccc(Oc2cnc3ccccc3n2)cc1 ?
false

###

Test system: MDA-N
Experiment: NCI tumour cell line growth inhibition, 48 h
property measured: TGI

Answered examples (3):
CC(Cl)CN1c2ccccc2Sc2ccc(Cl)cc21 (centres undefined): > 10 µM
CCC(=O)OCN(C)c1nc(N(C)COC(=O)CC)nc(N(C)COC(=O)CC)n1: > 100 µM
COc1cc(Nc2nc3cc(C(F)(F)F)ccc3nc2C(=O)O)cc(OC)c1OC: > 100 µM

Let us move to another entry and its TGI.
// sample Cc1cc(C)nc(NC(P(=O)(O)O)P(=O)(O)O)n1 , its TGI was > 100 µM

###

# key: entry, value: GI50
Test system: TK-10 renal
Assay: NCI tumour cell line growth inhibition, 48 h

These solved cases illustrate the format of a correct answer.
O=C(CCN1CCOCC1)Nc1cccc(-n2cc(-c3ccncc3)c(-c3ccc(Cl)c(O)c3)n2)c1: 8.18 µM
COc1ccc(-c2cc(Nc3ccnc(N4CCOCC4)n3)on2)cc1: 10.9 µM
CNC(C)[C@H]1CCC2C3CC=C4C(=O)[C@@H](NC(=O)C=C(C)C)CC[C@]4(C)C3CC[C@@]21C (some centres not stated): 2.89 µM
COc1cc(C(=O)O[C@H](C(N)=O)[C@]2(C)CO2)c2cccc(C)c2c1: < 0.0406 µM
CCOC(=O)c1sc(NC(=O)COc2cccc(/C=C3\CCc4cc(OC)ccc4C3=O)c2)nc1C: 21.7 µM

Record CN(C)CCNc1nc2ccccc2c2c(=O)c3cc(F)ccc3sc12 , field GI50: 1.76 µM

c1ccc2c(c1)c1ccccc1c1ccccc21 yielded GI50 of > 100 µM

###

System: KM12 colon
Assay: NCI tumour cell line growth inhibition, 48 h
Below, each entry is listed alongside its reported GI50.

COC(=O)[C@]12CC[C@@H](C)[C@H](C)[C@@H]1C1=CC[C@@H]3[C@@]4(C)C(C=O)=C[C@@](C)(COC(=O)c5ccco5)[C@@H]4[C@H](O)C[C@@]3(C)[C@]1(C)CC2: 1830 nM
C=C(C)[C@@H]1CC[C@]2(C)[C@H](CC[C@@H]3[C@@H]([C@@](C)(O)CCC=C(C)C)CC[C@]32C)[C@@]1(C)CCC(=O)O: 16300 nM
COc1ccc(-c2ccc(NNC(=O)c3ccc(F)cc3)nn2)cc1OC: > 100000 nM

With those in mind, consider the next compound.
Input CC1(C)N=C(N)N=C(N)N1c1cccc(OCCOc2cccc([N+](=O)[O-])c2)c1 . Output GI50: 1370 nM

###

// reported TGI per item
Tested on: HCT-15 colon
Experiment: NCI tumour cell line growth inhibition, 48 h
Where a SMILES comes first, the peptide text is derived from it. The star is where a group is joined. Cbz = O=C(OCc1ccccc1)*

# example entries with known answers
CC1(C)O[C@H]2OC(CO)C(N=[N+]=[N-])[C@H]2O1 (stereo not given in full): > 100 µM
CCOC(=O)CCC(NC(=O)C(Cc1ccccc1)NC(=O)OCc1ccccc1)C(=O)OCC (stereo not drawn) (Cbz-Phe-Glu(OEt)-OEt; configuration not given here): 41.6 µM
O=C(Cn1c2ccc(Br)cc2c2nc3ccccc3nc21)NNC(=S)NC1CCCCC1: 25.4 µM
COc1cc(-c2nnc3n2NC=C(C(=O)O)S3)cc(OC)c1OC: > 67.5 µM
COc1cc(/C=N\O[Si](C)(C)C(C)(C)C)ccc1O[Si](C)(C)C(C)(C)C: 82.3 µM
COc1ccc(C2(CC(C)C)CCN(S(=O)(=O)c3ccc(C)cc3)C2)cc1OC (stereo not given): > 100 µM
COc1cc(C(=O)O[C@H](C(N)=O)[C@]2(C)CO2)c2cccc(C)c2c1: 2.82 µM
Cc1ccnc2c1C(=O)C1=C(OC(C)(C)CC1O)C2=O (stereo not given): 9.97 µM

Value (TGI, HCT-15 colon) for record O=C(CBr)c1ccc2cc(Br)c3ccccc3c2c1 = > 100 µM

COc1cc2nc(-c3cccs3)nc(Cl)c2cc1OC on HCT-15 colon gives TGI = > 100 µM

The reported HCT-15 colon TGI of Cn1cc(S(=O)(=O)N2CCC3=Cc4c(cnn4-c4ccc(F)cc4)C[C@]3(C(=O)c3cc(C(F)(F)F)ccn3)C2)cn1 is > 100 µM

###

System: SK-MEL-28 melanoma
Test: NCI tumour cell line growth inhibition, 48 h
Documented TGI across a set of molecules
Quick reminder: number only, in µM, skip the unit.

Entry O=C1C(Br)=CC2(C=C1Br)CCNC1=C2C(=O)c2ncccc2C1=O ; TGI = 2.17

Value of TGI reported for the molecule CC(C)(C)c1cc(C(=O)/C=C/c2ccc(C(=O)O)cc2)cc(C(C)(C)C)c1 is 6.83

Entry O=C1C=C(Nc2ccc(S(=O)(=O)Nc3nccs3)cc2)c2ccccc2C1=O — recorded TGI = 45.2

The molecule listed as NCCCn1c2c(c3ccccc3c1=O)C(=O)c1ccccc1-2 has a reported TGI of 3.03

Recorded TGI (molecule N/C(=N\S(=O)(=O)c1ccc(-c2ncccc2C(F)(F)F)s1)Nc1ccc(Cl)cc1 ): 34.4

Reference source: PubChem BioAssay (NCI)
